The molecules listed here are annotated with their pIC50.
- ASSAYED_TARGET: Discoidin domain-containing receptor 2 (Homo sapiens)
- Sequence (Q16832 whole entry, the tested form may be a part): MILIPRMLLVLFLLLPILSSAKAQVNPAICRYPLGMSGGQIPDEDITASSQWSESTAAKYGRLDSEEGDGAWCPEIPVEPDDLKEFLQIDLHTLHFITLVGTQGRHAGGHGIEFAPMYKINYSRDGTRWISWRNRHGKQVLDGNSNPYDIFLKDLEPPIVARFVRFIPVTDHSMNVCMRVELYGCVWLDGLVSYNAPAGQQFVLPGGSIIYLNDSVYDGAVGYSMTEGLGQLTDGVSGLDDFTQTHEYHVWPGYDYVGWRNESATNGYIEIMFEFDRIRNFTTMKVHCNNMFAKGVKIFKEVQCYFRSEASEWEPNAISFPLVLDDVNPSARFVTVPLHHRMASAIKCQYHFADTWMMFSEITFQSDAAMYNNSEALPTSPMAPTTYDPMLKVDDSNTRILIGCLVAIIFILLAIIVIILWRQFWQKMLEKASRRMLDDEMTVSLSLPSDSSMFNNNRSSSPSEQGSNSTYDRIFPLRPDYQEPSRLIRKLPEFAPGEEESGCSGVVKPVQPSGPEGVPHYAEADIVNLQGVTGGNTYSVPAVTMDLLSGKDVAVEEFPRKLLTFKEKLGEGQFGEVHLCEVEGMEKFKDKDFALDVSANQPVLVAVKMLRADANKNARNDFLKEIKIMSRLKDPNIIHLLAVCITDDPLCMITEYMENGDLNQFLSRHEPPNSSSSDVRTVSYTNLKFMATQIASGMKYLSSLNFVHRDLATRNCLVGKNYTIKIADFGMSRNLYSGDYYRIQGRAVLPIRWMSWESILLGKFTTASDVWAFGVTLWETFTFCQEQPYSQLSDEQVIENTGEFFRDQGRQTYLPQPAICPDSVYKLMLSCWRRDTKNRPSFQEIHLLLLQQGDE
- TEST_SUMMARY: Inhibition of recombinant human GST-tagged DDR2 cytoplasmic domain expressed in baculovirus expression system using Fluorescein-Poly GAT as substrate measured after 1 hr by TR-FRET assay
pIC50: −log10 of the molar value.
ASSAY_READOUT: pIC50

>>> df
                                   molecule                            assayed_target  sign  reported_result
0  CC1CN(c2cncnc2)Cc2cc(C(=O)Nc3cc(CN4CCCC4)cc(C(F)(F)F)c3)ccc21 (racemic)  Discoidin domain-containing receptor 2 (Homo sapiens)     =             5.59
1  C[C@H]1CN(c2cncnc2)Cc2cc(C(=O)Nc3cc(CN4CCCN(C)CC4)cc(C(F)(F)F)c3)ccc21  Discoidin domain-containing receptor 2 (Homo sapiens)     =             6.59
2  CC1CN(c2cncnc2)Cc2cc(C(=O)Nc3cccc(CN4CCN(C)CC4)c3)ccc21 (racemic)  Discoidin domain-containing receptor 2 (Homo sapiens)     <             5.00
3  CN1CCN(Cc2cc(NC(=O)c3ccc4c(c3)CN(Cc3cncnc3)CC4)cc(C(F)(F)F)c2)CC1  Discoidin domain-containing receptor 2 (Homo sapiens)     <             5.00
4  CC1CN(c2cncnc2)Cc2cc(C(=O)Nc3cc(N4CCN(C)CC4)cc(C(F)(F)F)c3)ccc21 (racemic)  Discoidin domain-containing receptor 2 (Homo sapiens)     =             5.68
5  CC1CN(c2cncnc2)Cc2cc(C(=O)Nc3ccc(CN4CCN(C)CC4)c(C(F)(F)F)c3)ccc21 (racemic)  Discoidin domain-containing receptor 2 (Homo sapiens)     =             6.45
6  C[C@@H]1CN(c2cncnc2)Cc2cc(C(=O)Nc3cc(CN4CCCN(C)CC4)cc(C(F)(F)F)c3)ccc21  Discoidin domain-containing receptor 2 (Homo sapiens)     =             5.59
7  CN1CCN(Cc2cc(NC(=O)c3ccc4c(c3)CN(c3ccncn3)CC4)cc(C(F)(F)F)c2)CC1  Discoidin domain-containing receptor 2 (Homo sapiens)     <             5.00

* * *

- ASSAYED_TARGET: Epithelial discoidin domain-containing receptor 1 (Homo sapiens, UniProt Q08345)
- Sequence (Q08345 whole entry, the tested form may be a part): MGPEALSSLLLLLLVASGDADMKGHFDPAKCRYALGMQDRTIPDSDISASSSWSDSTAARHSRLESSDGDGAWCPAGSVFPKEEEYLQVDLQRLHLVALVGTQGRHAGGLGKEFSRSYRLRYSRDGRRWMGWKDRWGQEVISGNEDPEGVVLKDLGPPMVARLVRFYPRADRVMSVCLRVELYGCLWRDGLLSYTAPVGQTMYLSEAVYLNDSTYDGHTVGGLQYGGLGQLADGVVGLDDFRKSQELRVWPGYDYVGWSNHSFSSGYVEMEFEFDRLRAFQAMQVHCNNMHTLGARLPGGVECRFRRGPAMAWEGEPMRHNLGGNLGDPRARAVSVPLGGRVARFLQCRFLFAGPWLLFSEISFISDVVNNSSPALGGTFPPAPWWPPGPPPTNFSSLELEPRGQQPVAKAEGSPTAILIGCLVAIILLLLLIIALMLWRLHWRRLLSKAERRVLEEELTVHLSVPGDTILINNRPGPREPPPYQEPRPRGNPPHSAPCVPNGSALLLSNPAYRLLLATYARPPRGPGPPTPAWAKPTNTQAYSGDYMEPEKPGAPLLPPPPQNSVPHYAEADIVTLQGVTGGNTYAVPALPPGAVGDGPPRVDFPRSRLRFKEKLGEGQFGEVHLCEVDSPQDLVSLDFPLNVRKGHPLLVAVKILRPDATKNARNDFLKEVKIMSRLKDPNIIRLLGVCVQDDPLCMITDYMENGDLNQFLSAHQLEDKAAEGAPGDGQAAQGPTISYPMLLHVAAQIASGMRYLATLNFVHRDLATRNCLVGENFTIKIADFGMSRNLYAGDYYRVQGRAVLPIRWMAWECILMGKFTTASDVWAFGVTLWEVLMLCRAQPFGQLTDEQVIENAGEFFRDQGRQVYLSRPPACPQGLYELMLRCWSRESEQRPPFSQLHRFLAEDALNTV
- TEST_SUMMARY: Inhibition of recombinant human GST-tagged DDR1 catalytic domain expressed in baculovirus expression system using Fluorescein-Poly GAT as substrate measured after 1 hr by TR-FRET assay
ASSAY_READOUT: IC50 (nM)

>>> df
                                    compound                            assayed_target  assay_readout  sign  reported_result
 0  CN1CCN(Cc2cc(NC(=O)c3ccc4c(c3)CN(c3ccncn3)CC4)cc(C(F)(F)F)c2)CC1  Epithelial discoidin domain-containing receptor 1 (Homo sapiens, UniProt Q08345)           IC50     >            10000
 1  CCN1CCN(Cc2cc(NC(=O)c3ccc4c(c3)CN(c3cncnc3)CC4C)cc(C(F)(F)F)c2)CC1 (configuration not stated)  Epithelial discoidin domain-containing receptor 1 (Homo sapiens, UniProt Q08345)           IC50     =             71.1
 2  CC1CN(c2cncnc2)Cc2cc(C(=O)Nc3cc(CN4CCN(C)CC4)cc(C4CCCCC4)c3)ccc21 (racemic)  Epithelial discoidin domain-containing receptor 1 (Homo sapiens, UniProt Q08345)           IC50     =              123
 3  C[C@@H]1CN(c2cncnc2)Cc2cc(C(=O)Nc3cc(CN4CCCN(C)CC4)cc(C(F)(F)F)c3)ccc21  Epithelial discoidin domain-containing receptor 1 (Homo sapiens, UniProt Q08345)           IC50     =              167
 4  CCc1ccc(C(=O)Nc2cc(CN3CCN(C)CC3)cc(C(F)(F)F)c2)cc1C#Cc1ccc2ccnn2c1  Epithelial discoidin domain-containing receptor 1 (Homo sapiens, UniProt Q08345)           IC50     =             13.1
 5  CC1CN(c2cncnc2)Cc2cc(C(=O)Nc3cccc(CN4CCN(C)CC4)c3)ccc21 (racemic)  Epithelial discoidin domain-containing receptor 1 (Homo sapiens, UniProt Q08345)           IC50     >            10000
 6  CN1CCN(Cc2cc(NC(=O)c3ccc4c(c3)CN(Cc3cncnc3)CC4)cc(C(F)(F)F)c2)CC1  Epithelial discoidin domain-containing receptor 1 (Homo sapiens, UniProt Q08345)           IC50     >            10000
 7  CC1CN(c2cncnc2)Cc2cc(NC(=O)Nc3cc(CN4CCN(C)CC4)cc(C(F)(F)F)c3)ccc21 (racemic)  Epithelial discoidin domain-containing receptor 1 (Homo sapiens, UniProt Q08345)           IC50     >            10000
 8  CC1CN(c2cncnc2)Cc2cc(C(=O)Nc3cc(C(F)(F)F)ccc3CN3CCN(C)CC3)ccc21 (configuration not stated)  Epithelial discoidin domain-containing receptor 1 (Homo sapiens, UniProt Q08345)           IC50     =            10000
 9  C[C@H]1CN(c2cncnc2)Cc2cc(C(=O)Nc3cc(CN4CCCN(C)CC4)cc(C(F)(F)F)c3)ccc21  Epithelial discoidin domain-containing receptor 1 (Homo sapiens, UniProt Q08345)           IC50     =              6.6
10  CC(C)c1cc(CN2CCN(C)CC2)cc(NC(=O)c2ccc3c(c2)CN(c2cncnc2)CC3C)c1 (racemic)  Epithelial discoidin domain-containing receptor 1 (Homo sapiens, UniProt Q08345)           IC50     =             49.9
11  CC1CN(c2cncnc2)Cc2cc(C(=O)Nc3cc(CCN4CCN(C)CC4)cc(C(F)(F)F)c3)ccc21 (racemic)  Epithelial discoidin domain-containing receptor 1 (Homo sapiens, UniProt Q08345)           IC50     =             80.7

* * *

- ASSAYED_TARGET: Mast/stem cell growth factor receptor Kit (Homo sapiens, UniProt P10721)
- TEST_SUMMARY: Inhibition of recombinant human His-tagged c-kit cytoplasmic domain (544 to 976 residues) expressed in baculovirus expression system using […] as substrate measured after 1 hr by FRET-based Z'-Lyte assay
The molecules listed here are annotated with their IC50.
ASSAY_READOUT: IC50

In [3]: df
Out[3]:
                                   molecule  assay_readout  reported_result
0  CC1CN(c2cncnc2)Cc2cc(C(=O)Nc3cc(CN4CCCC4)cc(C(F)(F)F)c3)ccc21 (racemic)           IC50          > 10 µM
1  CC1CN(c2cncnc2)Cc2cc(C(=O)Nc3cc(CN4CCN(C5CCCCC5)CC4)cc(C(F)(F)F)c3)ccc21 (racemic)           IC50          > 10 µM
2  CC1Cc2ccc(C(=O)Nc3cc(CN4CCN(C)CC4)cc(C(F)(F)F)c3)cc2CN1c1cncnc1 (racemic)           IC50          > 10 µM

* * *

- ASSAYED_TARGET: Bcr/Abl fusion protein (Homo sapiens)
- Sequence (P00519 whole entry, the tested form may be a part): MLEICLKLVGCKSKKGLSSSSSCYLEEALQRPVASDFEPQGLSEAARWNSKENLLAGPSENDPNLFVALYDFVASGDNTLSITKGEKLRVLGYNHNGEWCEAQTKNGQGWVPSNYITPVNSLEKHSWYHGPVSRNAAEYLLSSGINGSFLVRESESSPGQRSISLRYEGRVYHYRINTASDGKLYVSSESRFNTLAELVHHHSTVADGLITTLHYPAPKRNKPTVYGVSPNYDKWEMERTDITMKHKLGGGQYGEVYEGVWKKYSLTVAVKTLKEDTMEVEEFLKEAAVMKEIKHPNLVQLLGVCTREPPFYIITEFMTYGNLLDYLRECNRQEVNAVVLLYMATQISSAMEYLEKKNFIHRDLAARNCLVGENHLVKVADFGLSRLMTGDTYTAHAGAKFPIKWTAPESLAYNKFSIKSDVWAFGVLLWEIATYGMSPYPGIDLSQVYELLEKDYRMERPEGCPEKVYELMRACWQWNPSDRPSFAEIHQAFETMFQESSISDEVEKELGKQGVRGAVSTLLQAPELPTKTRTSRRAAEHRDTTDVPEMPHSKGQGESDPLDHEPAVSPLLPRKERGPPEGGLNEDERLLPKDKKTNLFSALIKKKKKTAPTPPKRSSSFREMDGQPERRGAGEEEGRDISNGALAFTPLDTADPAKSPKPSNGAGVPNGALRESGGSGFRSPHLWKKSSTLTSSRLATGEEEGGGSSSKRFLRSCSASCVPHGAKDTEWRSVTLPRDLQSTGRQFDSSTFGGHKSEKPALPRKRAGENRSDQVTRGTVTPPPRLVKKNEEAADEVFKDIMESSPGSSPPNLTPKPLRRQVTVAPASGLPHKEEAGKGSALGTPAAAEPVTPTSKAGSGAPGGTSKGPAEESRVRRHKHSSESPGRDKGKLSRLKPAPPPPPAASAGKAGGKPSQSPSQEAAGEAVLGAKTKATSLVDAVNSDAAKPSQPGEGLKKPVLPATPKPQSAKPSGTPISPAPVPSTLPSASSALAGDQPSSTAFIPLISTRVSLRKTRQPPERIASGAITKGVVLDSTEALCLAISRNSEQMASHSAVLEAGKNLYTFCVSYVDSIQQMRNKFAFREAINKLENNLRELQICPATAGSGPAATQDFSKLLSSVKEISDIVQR
- Sequence (P11274 whole entry, further chain, the tested form may be a part): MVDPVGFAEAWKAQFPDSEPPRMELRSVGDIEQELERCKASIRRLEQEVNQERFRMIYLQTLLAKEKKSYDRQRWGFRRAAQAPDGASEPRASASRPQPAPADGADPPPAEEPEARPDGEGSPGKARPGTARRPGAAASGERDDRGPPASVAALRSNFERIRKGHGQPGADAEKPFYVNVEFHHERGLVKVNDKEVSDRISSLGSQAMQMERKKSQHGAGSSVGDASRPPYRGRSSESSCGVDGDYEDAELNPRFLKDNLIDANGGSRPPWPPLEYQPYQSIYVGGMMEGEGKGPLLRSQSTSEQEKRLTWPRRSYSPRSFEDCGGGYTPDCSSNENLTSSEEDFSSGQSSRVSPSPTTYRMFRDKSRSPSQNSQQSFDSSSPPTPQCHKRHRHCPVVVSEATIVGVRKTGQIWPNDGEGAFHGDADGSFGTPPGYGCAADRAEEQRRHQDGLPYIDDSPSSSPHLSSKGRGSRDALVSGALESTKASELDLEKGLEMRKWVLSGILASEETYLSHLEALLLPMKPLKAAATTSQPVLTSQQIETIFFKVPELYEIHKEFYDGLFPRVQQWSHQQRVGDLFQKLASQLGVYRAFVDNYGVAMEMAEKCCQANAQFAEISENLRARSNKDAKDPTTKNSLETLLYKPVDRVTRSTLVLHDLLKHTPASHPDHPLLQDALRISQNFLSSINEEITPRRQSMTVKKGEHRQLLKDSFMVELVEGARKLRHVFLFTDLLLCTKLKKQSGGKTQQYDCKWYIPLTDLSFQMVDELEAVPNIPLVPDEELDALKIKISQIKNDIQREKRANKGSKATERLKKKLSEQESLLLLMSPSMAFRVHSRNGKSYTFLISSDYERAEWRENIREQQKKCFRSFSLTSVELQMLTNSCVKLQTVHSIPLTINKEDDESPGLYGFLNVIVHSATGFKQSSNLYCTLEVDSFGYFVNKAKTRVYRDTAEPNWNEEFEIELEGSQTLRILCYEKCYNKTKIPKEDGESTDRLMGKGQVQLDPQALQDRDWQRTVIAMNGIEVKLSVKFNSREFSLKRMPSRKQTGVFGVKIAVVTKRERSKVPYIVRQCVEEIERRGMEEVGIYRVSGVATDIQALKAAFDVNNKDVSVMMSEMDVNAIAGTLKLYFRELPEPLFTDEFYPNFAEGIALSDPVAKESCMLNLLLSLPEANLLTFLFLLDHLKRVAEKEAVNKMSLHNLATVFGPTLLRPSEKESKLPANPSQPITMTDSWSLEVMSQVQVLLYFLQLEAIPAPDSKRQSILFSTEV
- TEST_SUMMARY: Inhibition of recombinant human full length His-tagged Bcr-Abl fusion protein cytoplasmic domain expressed in baculovirus expression system using tyrosine-2 as substrate measured after 1 hr by FRET-based Z'-Lyte assay
ASSAY_READOUT: IC50 (µM)

In [3]: df
Out[3]:
                                   compound   u  sign  reported_result
0  CC1CN(c2cncnc2)Cc2cc(C(=O)Nc3cc(C(F)(F)F)ccc3CN3CCN(C)CC3)ccc21 (stereo not drawn)  µM     >               10
1  CC1CN(c2cncnc2)Cc2cc(C(=O)Nc3cc(CN4CCN(C)CC4)cc(C4CC4)c3)ccc21 (racemic)  µM     =              9.9
2  CC1CN(c2cncnc2)Cc2cc(C(=O)Nc3cc(CN4CCN(C)CC4)cc(-c4ccccc4)c3)ccc21 (racemic)  µM     =               10
3  CC1CN(c2cncnc2)Cc2cc(C(=O)Nc3cc(CN4CCOCC4)cc(C(F)(F)F)c3)ccc21 (stereo not drawn)  µM     >               10
4  CC1CN(c2cncnc2)Cc2cc(C(=O)Nc3ccc(CN4CCN(C)CC4)c(C(F)(F)F)c3)ccc21 (racemic)  µM     =            0.547
5  CC1CN(c2cncnc2)Cc2cc(C(=O)Nc3cc(CN4CCN(C)CC4)cc(C(C)(C)C)c3)ccc21 (racemic)  µM     =              4.3
6  CC(C)c1cc(CN2CCN(C)CC2)cc(NC(=O)c2ccc3c(c2)CN(c2cncnc2)CC3C)c1 (racemic)  µM     =              8.7
7  CC1CN(c2cncnc2)Cc2cc(C(=O)Nc3cc(CN4CCN(C)CC4)cc(C4CCCCC4)c3)ccc21 (racemic)  µM     >               10
